Attribution: PubChem BioAssay

- EXPERIMENTAL_DETAILS: drug combination growth inhibition, ovarian cancer – cell-based, oncology-focused library, rucaparib conditional, profiling panel (AID 1508598)
- PROTOCOL_CONDITIONS: patient-derived ovarian cancer cells, CellTiter-Glo viability, 144 h; at 0.000305 µM; OCI-C5x cells; with rucaparib 10 µM; stronger effect = lower value; 100% = cells with rucaparib alone
Answer each item with its documented viability.
Numbers only, in %.

COMPOUND: CN(C)C/C=C/C(=O)Nc1cc2c(Nc3ccc(F)c(Cl)c3)ncnc2cc1O[C@H]1CCOC1
NUMERIC_VALUE: 118

COMPOUND: Cc1ccc2nc(NC(=O)CSc3nc4c(c(=O)n3-c3ccccc3)SCC4)sc2c1
NUMERIC_VALUE: 116

State recorded viability for all listed compounds.
1. Cc1nc(Nc2n[nH]c3c2CN(C(=O)N[C@H](CN(C)C)c2ccccc2)C3(C)C)c2sccc2n1
2. CC[C@@H]1C(=O)N(C)c2cnc(Nc3ccc(C(=O)NC4CCC(N5CCN(CC6CC6)CC5)CC4)cc3OC)nc2N1C(C)C (some centres undefined)
3. CN[C@H]1CN(c2ccc3c(=O)c(C(=O)O)cn(-c4nccs4)c3n2)C[C@@H]1OC
4. CC1(C)CNc2cc(NC(=O)c3cccnc3NCc3ccncc3)ccc21

[107, 101, 118, 121]

---

- EXPERIMENTAL_DETAILS: JHH-DIPG-1 glioma cell viability, MIPE5.0 library, CellTiter-Glo luminescence, qHTS (AID 1347067);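 note: cells exposed to compound for 48 hours before readout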
- PROTOCOL_CONDITIONS: JHH-DIPG-1 glioma viability, CellTiter-Glo ATP luminescence
Records with an inconclusive call do not appear. The source made the active and inactive calls. No cut-off is given here; in the data, nearly all actives have AC50 up to about 26 µM.
Your answer must be one of the following: True = active, False = inactive

Reference set, count: 3
SMILES_TEXT: CC1(C)CCC(CN2CCN(c3ccc(C(=O)NS(=O)(=O)c4ccc(NCC5CCOCC5)c([N+](=O)[O-])c4)c(Oc4cnc5[nH]ccc5c4)c3)CC2)=C(c2ccc(Cl)cc2)C1
CLASS_ASSIGNMENT: True

SMILES_TEXT: CC(=O)N[C@H]1CSSC[C@@H](C(N)=O)NC(=O)[C@H](C(C)C)NC(=O)[C@H](C)NC(=O)[C@H](Cc2cnc[nH]2)NC1=O
CLASS_ASSIGNMENT: False

SMILES_TEXT: Cc1cc(Nc2ncnc3ccc(-c4ccc(CNCCS(C)(=O)=O)o4)cc23)ccc1Oc1ccn2ncnc2c1
CLASS_ASSIGNMENT: True

// param item: `CCCCCCCCc1ccc(CCC(N)(CO)CO)cc1` ; yields the recorded call
True

Now the same for `COc1ccc(S(=O)(=O)Nc2cc(-c3c(O)ccc4ccccc34)c(O)c3ccccc23)cc1`
True

Now consider `CS(=O)(=O)c1cccc(CNc2nc(Nc3ccc4c(c3)CCC(=O)N4)ncc2C(F)(F)F)c1` .
True

Cool, now `CCNC(=O)C#Cc1ccc2c(C(=Nc3ccc(CN(C)C)cc3)c3ccccc3)c(O)[nH]c2c1`
True

Repeat with `C[C@H]1CNC(=O)c2cnn3ccc(nc23)N[C@H](C)c2cc(F)ccc2O1`
True

---

- EXPERIMENTAL_DETAILS: compounds altering HSF1 focus formation in cells – imaging, Selleck Cancer Library (AID 1347162)
- PROTOCOL_CONDITIONS: human cells, HSF1 nuclear foci imaging, at 10 µM; measured here: cell number
Where a SMILES comes first, the peptide text is derived from it. The star is where a group is joined. Cbz = O=C(OCc1ccccc1)*
Please respond with reported cell count for every item in the list.
Give bare numbers.

These solved cases illustrate the format of a correct answer.
COMPOUND: COc1nc(C)cnc1NS(=O)(=O)c1cccnc1-c1ccc(-c2nnco2)cc1
cell count: 7220
--
COMPOUND: COc1cc2nccc(Oc3ccc(NC(=O)Nc4cc(C)on4)c(Cl)c3)c2cc1OC
cell count: 7170
--
COMPOUND: CCCCc1nc2cc(/C=C/C(=O)NO)ccc2n1CCN(CC)CC
cell count: 7710

For each listed entry, give its cell count.
1. CC(C)C[C@@H](C=O)NC(=O)[C@H](CC(C)C)NC(=O)[C@H](CC(C)C)NC(=O)OCc1ccccc1 (Cbz-Leu-Leu-Leu-aldehyde)
2. Nc1ccccc1NC(=O)c1ccc(CNC(=O)OCc2cccnc2)cc1
3. COc1ccc(-c2ccc3c(N4CCOC[C@@H]4C)nc(N4CCOC[C@@H]4C)nc3n2)cc1CO
4. COc1cc(Nc2ncc(F)c(Nc3ccc4c(n3)NC(=O)C(C)(C)O4)n2)cc(OC)c1OC

1: 6800; 2: 6960; 3: 7120; 4: 7530
